System: Vero E6 infected with SARS-CoV-2
Assay: inhibition of SARS-CoV-2 cytopathic effect; higher = more antiviral protection, active = above 15
Settings: 1 nM; 48 h
reportedMetric: inhibition of SARS-CoV-2 cytopathic effect (%)
Lab book: enter the figure in %, no units written.

Solved entries (count: 6):
{"columns": ["molecule", "observedResult"],
 "data": [
  ["O[C@H]1[C@H](O)[C@@H](O)[C@H](O)[C@@H](O)[C@H]1O", -0.68],
  ["Cn1c(=O)n(-c2ccc(C(C)(C)C#N)cc2)c2c3cc(-c4cnc5ccccc5c4)ccc3ncc21", 1.43],
  ["C[C@H](NC[C@H](O)CP(=O)(O)CC1CCCCC1)c1ccc(Cl)c(Cl)c1", 0.9],
  ["C[C@]1(Cn2ccnn2)[C@H](C(=O)O)N2C(=O)C[C@H]2S1(=O)=O", 0.92],
  ["N#Cc1c[nH]c2c(C(=O)N3CCN(CCc4ccc(F)cc4)CC3)cccc12", 3.23],
  ["Cn1cc(C(=O)C(=O)N[C@H]2CN3CCC2CC3)c2ccccc21", 0.78]
]}

Q: What value of inhibition of SARS-CoV-2 cytopathic effect has been reported for the following molecule? `CNC[C@H](O)[C@@H](O)[C@H](O)[C@H](O)CO`
Ans: -10

Q: What value of inhibition of SARS-CoV-2 cytopathic effect has been reported for the following molecule? CC(C)N(CCC(C(N)=O)(c1ccccc1)c1ccccn1)C(C)C (stereo not drawn) [disopyramide]
Ans: -2.08

----------
Tested on: Vero E6 infected with SARS-CoV-2
Assay: inhibition of SARS-CoV-2 cytopathic effect; higher = more antiviral protection, active = above 15
Details: 833.33 nM; 48 h
reportedMetric: inhibition of SARS-CoV-2 cytopathic effect (%)
Lab book: enter the figure in %, no units written.

Solved entries (count: 2):
{"columns": ["molecule", "observedResult"],
 "data": [
  ["Cc1ccc(O)c(N=Nc2ccccc2)n1", 0.01],
  ["CC(N)C12CC3CC(CC(C3)C1)C2 (stereo not drawn)", -5.56]
]}

Q: What value of inhibition of SARS-CoV-2 cytopathic effect has been reported for the following molecule? `Cc1c(CN2CCN(C(=O)[C@H](C)O)CC2)sc2c(N3CCOCC3)nc(-c3cnc(N)nc3)nc12`
Ans: -5.06

----------
System: Vero E6 infected with SARS-CoV-2
Assay: inhibition of SARS-CoV-2 cytopathic effect; higher = more antiviral protection, active = above 15
Details: 833.33 nM; 48 h
reportedMetric: inhibition of SARS-CoV-2 cytopathic effect (%)
Lab book: enter the figure in %, no units written.

Solved entries (count: 2):
{"columns": ["compoundSmiles", "observedResult"],
 "data": [
  ["NC[C@H]1O[C@H](O[C@H]2[C@H](O)[C@@H](O[C@H]3O[C@H](CO)[C@@H](O)[C@H](N)[C@H]3O)[C@H](N)C[C@@H]2N)[C@H](N)[C@@H](O)[C@@H]1O", 0],
  ["C1N2CN3CN1CN(C2)C3", -0.2]
]}

Then there is this compound:
Q: What value of inhibition of SARS-CoV-2 cytopathic effect has been reported for the following compound? `Clc1cccc(-n2nnnc2NCc2ccccc2Oc2ccccn2)c1Cl`
Ans: 0.18

----------
System: Vero E6 infected with SARS-CoV-2
Experiment: inhibition of SARS-CoV-2 cytopathic effect; higher = more antiviral protection, active = above 15
Settings: 100 nM; 48 h
reportedMetric: inhibition of SARS-CoV-2 cytopathic effect (%)
Lab book: enter the figure in %, no units written.

Solved entries (count: 6):
{"columns": ["compound", "observedResult"],
 "data": [
  ["C[C@]12CC[C@H]3[C@@H](CCC4=CC(=O)CC[C@@H]43)[C@@H]1CC[C@@H]2O", -1.06],
  ["Fc1ccc(-n2cc(CCCCN3CCC4(CC3)OCc3ccccc34)c3ccccc32)cc1", 1.49],
  ["O=C1NC(=O)/C(=C/c2cccc(C(F)(F)F)c2)S1", 1.98],
  ["CC(=O)O[C@H]1CC[C@@]2(C)C(=CC[C@@H]3[C@@H]2CC[C@]2(C)C(=O)CC[C@@H]32)C1 [prasterone-acetate]", 3.18],
  ["COc1cc2c(cc1OC)CN(C(=O)[C@@H](NCc1ccncc1)C(C)(C)C)CC2", 2.93],
  ["Cc1ccc2c(N3CCN(CCc4cccc(N5CCNC5=O)c4)CC3)cccc2n1", -3.97]
]}

Q: What value of inhibition of SARS-CoV-2 cytopathic effect has been reported for the following compound? `COc1cc(NC(=O)c2ccc(-c3ccc(Cl)cc3)o2)cc(OC)c1`
Ans: 0.76

Q: What value of inhibition of SARS-CoV-2 cytopathic effect has been reported for the following compound? `Cc1cc(C(=CNc2ccc(Cl)cc2)C(=O)Nc2ccc(Cl)cc2)on1`
Ans: -2

Q: What value of inhibition of SARS-CoV-2 cytopathic effect has been reported for the following compound? `CC(C)C1=C2[C@H]3CC[C@@H]4[C@@]5(C)CC[C@H](OC(=O)CC(C)(C)C(=O)O)C(C)(C)[C@@H]5CC[C@@]4(C)[C@]3(C)CC[C@@]2([C@@H](O)CN(CCN(C)C)Cc2ccc(Cl)cc2)CC1=O`
Ans: -0.05

----------
Test system: Vero E6 infected with SARS-CoV-2
Test: inhibition of SARS-CoV-2 cytopathic effect; higher = more antiviral protection, active = above 15
Details: 8.33 nM; 48 h
# inhibition of SARS-CoV-2 cytopathic effect per record follows
Lab book: enter the figure in %, no units written.

Solved entries (count: 8):
{"columns": ["compound", "targetSystem", "observedResult"],
 "data": [
  ["CCCc1c2oc(C(=O)O)cc(=O)c2cc2c(=O)cc(C(=O)O)n(CC)c12", "Vero E6 infected with SARS-CoV-2", 1.24],
  ["Cn1cc(-c2ccc3ncc(Cc4ccc5ncccc5c4)n3n2)cn1", "Vero E6 infected with SARS-CoV-2", -2.71],
  ["C=C[C@]1(C)C[C@@H](OC(=O)CS[C@@H]2C[C@H]3CC[C@@H](C2)N3C)[C@]2(C)[C@H](C)CC[C@]3(CCC(=O)[C@H]32)[C@@H](C)[C@@H]1O", "Vero E6 infected with SARS-CoV-2", 2.42],
  ["COc1cc(NC(C)CCCN)c2ncccc2c1 (configuration not stated)", "Vero E6 infected with SARS-CoV-2", 2.25],
  ["O=C(C[S+]([O-])C(c1ccccc1)c1ccccc1)NO (configuration not stated)", "Vero E6 infected with SARS-CoV-2", -1.5],
  ["CC(=O)Oc1ccc(C(c2ccc(OC(C)=O)cc2)c2ccccn2)cc1", "Vero E6 infected with SARS-CoV-2", -1.99],
  ["CN(C[C@@H]1COCCO1)S(=O)(=O)Nc1ccc2ccc3ncc(-c4cnn(C)c4)cc3c(=O)c2c1", "Vero E6 infected with SARS-CoV-2", 1.08],
  ["C(#CCN1CCCC1)CN1CCCC1", "Vero E6 infected with SARS-CoV-2", 4.46]
]}

Q: Lab request: please report inhibition of SARS-CoV-2 cytopathic effect under test system Vero E6 infected with SARS-CoV-2 for `CCn1c(-c2nonc2N)nc2cncc(C(=O)N3CC[C@H](N)C3)c21`
Ans: 3.31

Q: Lab request: please report inhibition of SARS-CoV-2 cytopathic effect under test system Vero E6 infected with SARS-CoV-2 for `COc1ccc(Cn2ccc3ccc(C(=O)NO)cc32)cc1`
Ans: 0.42

Q: Lab request: please report inhibition of SARS-CoV-2 cytopathic effect under test system Vero E6 infected with SARS-CoV-2 for CN(C)C[C@H](O)Cn1c2ccc(Br)cc2c2cc(Br)ccc21 (racemic)
Ans: -1.61

Q: Lab request: please report inhibition of SARS-CoV-2 cytopathic effect under test system Vero E6 infected with SARS-CoV-2 for CCCCCCCCCCCCCCCC(=O)OC(C)C [isopropyl-palmitate]
Ans: -0.59

Q: Lab request: please report inhibition of SARS-CoV-2 cytopathic effect under test system Vero E6 infected with SARS-CoV-2 for `CC(C)C[C@H](NC(=O)[C@@H](Cc1c[nH]c2ccccc12)NC(=O)[C@H](Cc1ccc(O)cc1)NC(=O)[C@H](CO)NC(=O)[C@H](Cc1c[nH]c2ccccc12)NC(=O)[C@H](Cc1c[nH]cn1)NC(=O)[C@@H]1CCC(=O)N1)C(=O)N[C@@H](CCCNC(=N)N)C(=O)N1CCC[C@H]1C(=O)NCC(N)=O`
Ans: 2.79

Q: Lab request: please report inhibition of SARS-CoV-2 cytopathic effect under test system Vero E6 infected with SARS-CoV-2 for `COC(=O)c1cnn(-c2ccc(F)cc2F)c1/C=N/NC(=S)NC(C)(C)C`
Ans: 0.05

Q: Lab request: please report inhibition of SARS-CoV-2 cytopathic effect under test system Vero E6 infected with SARS-CoV-2 for `N[C@@]1(C(=O)O)CC[C@H]2[C@H](C(=O)O)[C@H]21`
Ans: -0.24

Q: Lab request: please report inhibition of SARS-CoV-2 cytopathic effect under test system Vero E6 infected with SARS-CoV-2 for `Cn1c(N2CCCCS2(=O)=O)nc(C(=O)NCc2ccc(F)cc2)c(O)c1=O`
Ans: -1.76

Q: Lab request: please report inhibition of SARS-CoV-2 cytopathic effect under test system Vero E6 infected with SARS-CoV-2 for `O=C1c2c(O)cc(O)cc2O[C@H](c2ccc(O)c(O)c2)[C@H]1O`
Ans: 1.31

Q: Lab request: please report inhibition of SARS-CoV-2 cytopathic effect under test system Vero E6 infected with SARS-CoV-2 for `O=c1oc2cc(O)ccc2s1`
Ans: -2.55

Just for reference, the supplement of paper PMC13380429 is where these values come from.
